# test.details: in vitro
# assay.context: human, hela cells, % viability
Listed here are compounds together with their documented viability at 28.5 h, 10 µM.
assay.readout: viability at 28.5 h, 10 µM (%)

• N=C(Nc1nc(=O)cc(CSc2ccc(Cl)cc2)[nH]1)Nc1cccc2ccccc12 [CBK266504] = 98.9
• Cc1cc(C)nc(N2CCCC(O)(c3nc(C)c(CCOc4ccccc4)s3)CC2)n1 (stereo not shown) [CBK285924] = 111
• CCNc1cncc(-c2ccc(N)cc2)n1 [CBK065658] = 112
• Nc1ncc(-c2ccc(C(=O)N3CCOCC3)cc2)cc1C(=O)NCc1c(F)cccc1F [CBK158569] = 80.6
• Cc1cc(S(=O)(=O)N(CCC#N)Cc2ccccc2)c(C)cc1Cl [CBK043461] = 90.8
• Cc1cc(-n2cccn2)ccc1CN1CCCCC1CN1CCOCC1 (stereo not shown) [CBK307442] = 83.2
• CCNC(=S)NC1CC[C@@]2(C3=CC=CC4C=CC=CC34)CCN(C)[C@H]2C1 (stereo partly shown) [CBK003596C] = 91.7
• NC(=O)C1(Cc2ccccc2-c2ccccc2)CCN(C(=O)Cc2ccccc2)CC1 [CBK285909] = 95.9
• Cc1cc(-c2cnc(N)nc2)cc(C2CCCN(S(=O)(=O)c3ccc(F)c(C)c3)C2)n1 (stereo not shown) [CBK285934] = 105
• Cc1c(CN2CCCCC2CCN2CCCC2=O)oc2ccccc12 (stereo not shown) [CBK282181] = 104
• Cc1cc(C)c(C)c(OCCCNC(=O)Cc2c(C)noc2C)c1 [CBK281506] = 100
• COC(=O)c1ccsc1NC(=O)CN1CCN(Cc2ccc3c(c2)OCO3)CC1 [CBK267940] = 97.6
• COc1nccnc1OC1CCN(CCOc2ccccc2)CC1 [CBK084260] = 94.4
• Oc1ccccc1-c1ccnc(SC(F)F)n1 [CBK021971] = 81.8
• COc1cc(CNc2nn[nH]n2)ccc1OCc1ccc(F)cc1Cl [CBK269536] = 90.6
• O=C(CC(C(=O)O)P(=O)(c1ccccc1)c1ccccc1)c1ccccc1 (stereo not shown) [CBK264971] = 114
• COC(=O)[C@@H]1Cc2ncn(Cc3ccc(Cl)cc3)c2CN1C(=O)c1ccc(C#N)cc1 [CBK288984] = 94.5
• CN(C)C(=O)CN1CCN(C(=O)c2ccccc2C(=O)c2ccc(F)cc2)CC1 [CBK297921] = 89.5
• Cc1ccc(-c2cc(C(F)(F)F)n3ncc(C(=O)NCc4c(C)nn(C)c4C)c3n2)cc1 [CBK293956] = 106

###

# test.details: in vitro
# assay.context: human, hela cells, % viability
The following compounds are shown together with reported viability at 28.5 h, 10 µM values.
assay.readout: viability at 28.5 h, 10 µM

* Cc1ccccc1-c1cc(C(=O)NCCCn2cc(Br)cn2)c2ccccc2n1 [CBK267758] | 97.8%
* COc1cccc(CN(Cc2ccco2)Cc2cnc(C)n2C)c1 [CBK282494] | 93.6%
* Cc1[nH]cnc1CN1CCc2c(c3ccccc3n2C)C1=O [CBK002383C] | 63.5%
* CCN(CC)CCC(C(=O)c1ccccc1)S(C)(=O)=O (centres unmarked) [CBK022802] | 88.8%
* Cn1c(SCC(=O)c2ccc(F)cc2)ncc(C(=O)Nc2ccccc2)c1=O [CBK287672] | 111%

Entry source: paper PMC12040169
